Attribute: pIC50
Biological target: P2X7 (Homo sapiens, UniProt Q99572)
Assay: IL-1β release assay in THP-1 cells (sandwich ELISA)
Format: cell-based
Set-up: release of mature IL-1β in the culture medium of THP-1 cells; endogenous in cells; host or cells: THP-1 cells (PMA-differentiated, LPS-primed)
Conditions: PMA, LPS primed, stimulated with 0.8 mM BzATP, mature IL-1β release, read-out: hTHP-1/IL-ib IC50
pIC50: −log10 of the molar value.

Recorded results for 3 compounds are shown here.
{"Compound": "O=C(NC[C@@]1(O)CCCC(F)(F)C1)c1c(Cl)ccc2nc(N3CCC(F)(F)C3)ccc12", "pIC50": "7.00 to 8.00"}
{"Compound": "NC1CCN(c2ccc3c(C(=O)NCC4(O)CCCC(F)(F)C4)c(Cl)ccc3n2)C1 (stereo not shown)", "pIC50": "7.00 to 8.00"}
{"Compound": "O=C(NCC1CCC(F)(F)CC1)c1c(Cl)ccc2nc(C3=CCCC3)ccc12", "pIC50": "6.30 to 7.00"}

Now turn to the next compound.
Q: For the compound shown here, O=C(NCC1CCC(F)(F)CC1)c1c(Cl)ccc2nc(C3=CCOCC3)ccc12 , give the reported pIC50.
A: 6.30 to 7.00

---

Molecular target: P2X7 (Homo sapiens, UniProt Q99572)
Assay: IL-1β release assay in THP-1 cells (sandwich ELISA)
Type: cell-based
Design: release of mature IL-1β in the culture medium of THP-1 cells; endogenous in cells; host or cells: THP-1 cells (PMA-differentiated, LPS-primed)
Conditions: PMA, LPS primed, stimulated with 0.8 mM BzATP, mature IL-1β release, read-out: hTHP-1/IL-ib IC50
Metric: IC50

Recorded results for 3 molecules are shown here.
{"Molecule": "O=C(NCC1CCC(F)(F)CC1)c1c(Cl)ccc2nc(N3CC(F)(F)C3)ccc12 [Compound 74]", "IC50": "101 to 500 nM"}
{"Molecule": "O=C(NCC1CCC(F)(F)CC1)c1c(Cl)ccc2nc(N3CCC(F)(F)C3)ccc12 [Compound 58]", "IC50": "101 to 500 nM"}
{"Molecule": "C[C@@H]1CCC[C@](O)(CNC(=O)c2c(Cl)ccc3nc(N4CCC(N5CCCC5)C4)ccc23)C1 (stereo partly shown) [Compound 13]", "IC50": "< 10 nM"}

Now turn to the next molecule.
Q: For the molecule shown here, O=C(NCC1CCC(F)(F)CC1)c1c(Cl)ccc2nc(N3CC[C@H](CO)C3)ccc12 [Compound 29] , give the reported IC50.
A: 10 to 100 nM

---

Biological target: UniProt:Q99572
Sequence (Q99572 1-595): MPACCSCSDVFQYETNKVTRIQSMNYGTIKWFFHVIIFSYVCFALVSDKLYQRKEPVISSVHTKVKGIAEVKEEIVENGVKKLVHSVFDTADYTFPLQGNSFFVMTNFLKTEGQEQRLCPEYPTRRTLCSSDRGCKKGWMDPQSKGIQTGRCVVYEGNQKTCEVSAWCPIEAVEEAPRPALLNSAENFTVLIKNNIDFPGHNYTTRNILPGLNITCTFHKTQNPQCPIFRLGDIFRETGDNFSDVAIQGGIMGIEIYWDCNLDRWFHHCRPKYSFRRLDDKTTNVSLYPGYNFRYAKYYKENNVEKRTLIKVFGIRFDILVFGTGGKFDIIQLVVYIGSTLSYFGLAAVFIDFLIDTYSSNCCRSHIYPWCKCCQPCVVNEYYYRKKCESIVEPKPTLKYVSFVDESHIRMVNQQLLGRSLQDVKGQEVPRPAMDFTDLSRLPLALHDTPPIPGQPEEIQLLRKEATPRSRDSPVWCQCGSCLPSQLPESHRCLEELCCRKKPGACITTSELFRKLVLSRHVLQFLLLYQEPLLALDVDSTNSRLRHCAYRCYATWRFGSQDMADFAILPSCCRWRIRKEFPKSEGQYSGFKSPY
Assay: IL-1β release assay in THP-1 cells (sandwich ELISA)
Assay type: cell-based
Set-up: release of mature IL-1β in the culture medium of THP-1 cells; endogenous in cells; host or cells: THP-1 cells (PMA-differentiated, LPS-primed)
Conditions: PMA, LPS primed, stimulated with 0.8 mM BzATP, mature IL-1β release, read-out: hTHP-1/IL-ib IC50
pIC50: −log10 of the molar value.
Metric: pIC50

Recorded results for 5 compounds are shown here.
{"Compound": "C[C@@H]1CCC[C@](O)(CNC(=O)c2c(Cl)ccc3nc(N4CCC(F)(F)C4)ccc23)C1", "pIC50": "7.00 to 8.00"}
{"Compound": "CN(C)C1CCN(c2ccc3c(C(=O)NCC4CCC(F)(F)CC4)c(Cl)ccc3n2)C1 (centres unmarked)", "pIC50": "6.30 to 7.00"}
{"Compound": "O=C(NCC1(O)CCC(F)(F)CC1)c1c(Cl)ccc2nc(N3CCC(N4CCCC4)C3)ccc12 (centres unmarked)", "pIC50": "7.00 to 8.00"}
{"Compound": "O=C(NCC1(O)CCCC(F)(F)C1)c1c(Cl)ccc2nc(N3CCC(F)(F)C3)ccc12 (centres unmarked)", "pIC50": "7.00 to 8.00"}
{"Compound": "O=C(NCC1CCC(F)(F)CC1)c1c(Cl)ccc2nc(CCCO)ccc12", "pIC50": "6.30 to 7.00"}

Q: For the compound shown here, O=C(NCC1CCCC(F)(F)C1)c1c(Cl)ccc2nc(N3CCC(CCO)C3)ccc12 (centres unmarked) , give the reported pIC50.
A: 6.30 to 7.00

Q: Can you handle O=C(NCC1CCC(F)(F)CC1)c1c(Cl)ccc2nc(N3CCC(CO)C3)ccc12 (centres unmarked) next?
A: 7.00 to 8.00

Q: Can you handle O=C(NCC1CCC(F)(F)CC1)c1c(Cl)ccc2nc(NCCO)ccc12 next?
A: 7.00 to 8.00

Q: Can you handle CC(C)(C)OC(=O)N1CC=C(c2ccc3c(C(=O)NCC4CCC(F)(F)CC4)c(Cl)ccc3n2)CC1 next?
A: 6.30 to 7.00

Q: Can you handle CNC1CCN(c2ccc3c(C(=O)NCC4CCC(F)(F)CC4)c(Cl)ccc3n2)C1 (centres unmarked) next?
A: 7.00 to 8.00
